- Tested on: THRa homodimer (NR concentration 90 nM)
- test: PBM binding z-score (relative to random genomic background probes); higher = stronger binding; sequences stand for … in GC…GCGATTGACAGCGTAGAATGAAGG
For each record, write down the corresponding PBM binding z-score.
Numbers only.

Answered examples (5):
CCTAGCAGGCCAGGGCCACTCAAGCATTTCGCTT = -0.794
CGATCTAGGTCATCCAGGACAGTGAATACATTGA = 2.35
TCAGACAGGTGTAGGTAACTCAGGTACGCAGTCG = 0.621
GTACCAAGGTGAATAGGTCGTTGGTGAGTAGGCG = 0.526
ACTAGTTGGTCAGCTGAGGTCACGCACAATTCGG = 5.78

Take each entry in turn and give its PBM binding z-score.
1. CGTCCAAGGTCAGCAGTTCAGTGAAAGCGACGTG
2. GCGACTGGGGCATCAGCAGGTTACAATAACTTAA
3. TTACCAAGGTGAGCTGAGGTCGTTGTTCCAACTC

// result
[2.45, 0.0253, 2.02]

Give PBM binding z-score for all sequences that follow.
1. TCTTGTAGATCAAAGGTTAAAAAAGCCGAAGCCT
2. CAAACTATGTCACGAAAGGTCAAAGTCGAATGAC
3. CGTCCAAGGTCATTGCTAGGTCAGTGAAAGCATT

// result
1: -0.334; 2: 1.4; 3: 3.31

// query System THRa homodimer (NR concentration 90 nM). Read-out PBM binding z-score. Item "CCTACTGGGCCATGCAGAGGTCATTGATCATATG" . Report value.
// result 1.12
